target: Mu-type opioid receptor (Mus musculus)
Sequence (P42866 whole entry): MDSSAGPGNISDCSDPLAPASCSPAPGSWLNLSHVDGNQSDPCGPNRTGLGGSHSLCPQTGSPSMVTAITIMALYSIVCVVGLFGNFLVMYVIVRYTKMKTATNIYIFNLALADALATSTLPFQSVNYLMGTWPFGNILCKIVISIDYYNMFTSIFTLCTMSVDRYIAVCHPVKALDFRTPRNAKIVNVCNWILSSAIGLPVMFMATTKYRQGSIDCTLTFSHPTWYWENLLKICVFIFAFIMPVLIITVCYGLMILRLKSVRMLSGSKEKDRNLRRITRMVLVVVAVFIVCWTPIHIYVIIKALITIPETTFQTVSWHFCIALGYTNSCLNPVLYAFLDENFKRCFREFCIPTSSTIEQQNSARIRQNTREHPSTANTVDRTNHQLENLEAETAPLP
Quick reference: Ki of the listed items.
assay endpoint: Ki (nM)

| smiles repr | target desc | value reported |
| --- | --- | --- |
| CCN1CC[C@]2(c3cccc(O)c3)Cc3[nH]c(C(=O)N(C(C)C)C(C)C)c(C)c3C[C@H]2C1 | Mu-type opioid receptor (Mus musculus) | 57.9 |
| CCN1CC[C@]2(c3cccc(O)c3)Cc3c([nH]c(C(=S)N(CC)CC)c3C)C[C@H]2C1 | Mu-type opioid receptor (Mus musculus) | 42 |
| CCOC(=O)c1[nH]c2c(c1C)C[C@@]1(c3cccc(O)c3)CCN(CC)C[C@@H]1C2 | Mu-type opioid receptor (Mus musculus) | 141 |
| CCN1CC[C@]2(c3cccc(O)c3)Cc3[nH]c(C(N)=O)c(C)c3C[C@H]2C1 | Mu-type opioid receptor (Mus musculus) | 139 |
| CCN1CC[C@]2(c3cccc(O)c3)Cc3[nH]c(C(=O)N(C)C)c(C)c3C[C@H]2C1 | Mu-type opioid receptor (Mus musculus) | 580 |
| CN1CC[C@]2(c3cccc(O)c3)Cc3nc4ccccc4cc3C[C@H]2C1 | Mu-type opioid receptor (Mus musculus) | 59.6 |
| CCN(CC)C(=O)c1[nH]c2c(c1C)C[C@@]1(c3cccc(O)c3)CCN(C)C[C@@H]1C2 | Mu-type opioid receptor (Mus musculus) | 89.4 |

###

target: Kappa-type opioid receptor (Mus musculus)
Sequence (P33534 whole entry): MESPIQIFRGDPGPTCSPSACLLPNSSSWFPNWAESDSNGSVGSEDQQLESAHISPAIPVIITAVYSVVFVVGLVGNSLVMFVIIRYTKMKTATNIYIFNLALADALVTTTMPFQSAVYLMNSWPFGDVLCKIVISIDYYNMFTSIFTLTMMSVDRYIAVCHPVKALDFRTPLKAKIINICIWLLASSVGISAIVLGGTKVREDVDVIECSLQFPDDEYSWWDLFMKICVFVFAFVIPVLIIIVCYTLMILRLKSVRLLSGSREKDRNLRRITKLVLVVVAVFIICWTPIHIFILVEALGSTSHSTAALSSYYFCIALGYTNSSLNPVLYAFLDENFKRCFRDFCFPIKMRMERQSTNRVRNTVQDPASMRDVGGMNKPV
pKi: −log10 of the molar value.
assay endpoint: pKi

| smiles repr | target desc | qualifier sign | value reported |
| --- | --- | --- | --- |
| CCN1CC[C@]2(c3cccc(O)c3)Cc3[nH]c(C(=O)N(C(C)C)C(C)C)c(C)c3C[C@H]2C1 | Kappa-type opioid receptor (Mus musculus) | < | 6.00 |
| CCN1CC[C@]2(c3cccc(O)c3)Cc3[nH]c(C(N)=O)c(C)c3C[C@H]2C1 | Kappa-type opioid receptor (Mus musculus) | = | 7.15 |
| CCN(CC)C(=O)c1[nH]c2c(c1C)C[C@@]1(c3cccc(O)c3)CCN(C)C[C@@H]1C2 | Kappa-type opioid receptor (Mus musculus) | < | 6.00 |
| CCN1CC[C@]2(c3cccc(O)c3)Cc3[nH]c(C(=O)N(C)C)c(C)c3C[C@H]2C1 | Kappa-type opioid receptor (Mus musculus) | < | 6.00 |
| CCN1CC[C@]2(c3cccc(O)c3)Cc3c([nH]c(C(=S)N(CC)CC)c3C)C[C@H]2C1 | Kappa-type opioid receptor (Mus musculus) | = | 6.35 |
| CN1CC[C@]2(c3cccc(O)c3)Cc3nc4ccccc4cc3C[C@H]2C1 | Kappa-type opioid receptor (Mus musculus) | = | 6.51 |
| CCOC(=O)c1[nH]c2c(c1C)C[C@@]1(c3cccc(O)c3)CCN(CC)C[C@@H]1C2 | Kappa-type opioid receptor (Mus musculus) | = | 6.77 |
